# System: S. aureus
reported-property: MIC (µg/mL)
Please state the figure in µg/mL; there is no need to write the unit.

molecule-smiles	study-target	reported-property	experimental-value
N#C[Se]C/C=C/c1ccccc1	S. aureus	MIC	50

# ---- query molecule ----
**Q:** // map N#C[Se]Cc1ccc2c(c1)OCO2 to recorded MIC (system: S. aureus)
**A:** 25

----------
# System: HCT-116
# assay-comment: Antiproliferative MTT assay, HCT-116 colon cancer cells
# Assay type: cell-based, human
# test-conditions: Homo sapiens, HCT-116, 48 h, MTT assay, 48 h, mean ± SD; read-out: IC50 HCT-116
pIC50: −log10 of the molar value.
reported-property: pIC50

Solved cases below.
compound	study-target	pIC50
C(=C\c1ccccc1)/C[Se][Se]C/C=C/c1ccccc1 [Compound 1b, 1,2-Dicinnamyldiselenide]	HCT-116	> 4.40
c1cc2c(cc1C[Se][Se]Cc1ccc3c(c1)OCO3)OCO2	HCT-116	~4.96

# ---- query compound ----
**Q:** For the compound N#C[Se]Cc1ccc2c(c1)OCO2 , what pIC50 is on record?
**A:** 4.16
